// provenance: patent US6512097

Target: T1, c-erbB-2 ECD with a Ser-Gly-His6 C-terminal fusion (UniProt P04626 23-652)
T1 construct: extracellular domain; Expressed from CHO cells, IMAC purified; coupled to a CM5 chip, coated on plates, or biotinylated with NHS-LC-biotin; also called c-erbB-2 extracellular domain; biotinylated c-erbB-2 ECD
Assay: SPR BIAcore
MEASURED METRIC: koff (s⁻¹)
Form entry: value (s⁻¹) — number only.

Entry C6ML3-19 (scFv) scFv: QVQLLQSGAELKKPGESLKISCKGSGYSFTSYWIAWVRQMPGKGLEYMGLIYPGDSDTKYSPSFQGQVTISVDKSVSTAYLQWSSLKPSDSAVYFCARHDVGYCSSSNCAKWPEYFQHWGQGTLVTVSSGGGGSGGGGSGGGGSQSVLTQPPSVSAAPGQKVTISCSGSSSNIGNNYVSWYQQLPGTAPKLLIYGHTNRPAGVPDRFSGSKSGTSASLAISGFRSEDEADYYCASWDRPLWGWVFGGGTKLTVLG , koff reported as 0.001

Continuing:
Field koff (entry C6ML3-7 (scFv) scFv: QVQLLQSGAELKKPGESLKISCKGSGYSFTSYWIAWVRQMPGKGLEYMGLIYPGDSDTKYSPSFQGQVTISVDKSVSTAYLQWSSLKPSDSAVYFCARHDVGYCSSSNCAKWPEYFQHWGQGTLVTVSSGGGGSGGGGSGGGGSQSVLTQPPSVSAAPGQKVTISCSGSSSNIGNNYVSWYQQLPGTAPKLLIYGHTNRPAGVPDRFSGSKSGTSASLAISGFRSEDEADYYCAAWDYAVSGWVFGGGTKLTVLG ) reads 0.0017

koff reported for this binder C6ML3-14 (scFv) scFv: QVQLLQSGAELKKPGESLKISCKGSGYSFTSYWIAWVRQMPGKGLEYMGLIYPGDSDTKYSPSFQGQVTISVDKSVSTAYLQWSSLKPSDSAVYFCARHDVGYCSSSNCAKWPEYFQHWGQGTLVTVSSGGGGSGGGGSGGGGSQSVLTQPPSVSAAPGQKVTISCSGSSSNIGNNYVSWYQQLPGTAPKLLIYGHTNRPAGVPDRFSGSKSGTSASLAISGFRSEDEADYYCAAWDDPLWGWVFGGGTKLTVLG : 0.00076

The binder listed as C6ML3-23 (scFv) scFv: QVQLLQSGAELKKPGESLKISCKGSGYSFTSYWIAWVRQMPGKGLEYMGLIYPGDSDTKYSPSFQGQVTISVDKSVSTAYLQWSSLKPSDSAVYFCARHDVGYCSSSNCAKWPEYFQHWGQGTLVTVSSGGGGSGGGGSGGGGSQSVLTQPPSVSAAPGQKVTISCSGSSSNIGNNYVSWYQQLPGTAPKLLIYGHTNRPAGVPDRFSGSKSGTSASLAISGFRSEDEADYYCASWDHSLWGWVFGGGTKLTVLG shows koff equal to 0.001
